Entry source: patent US20250109215A1

Consider the following binders and their measured koff readings.
Molecular target: T1, human CD123 (human, UniProt P26951 19-305, limits assumed)
T1 construct: Construct on the chip is not described; also called CD123 chip
T1 sequence (looked up): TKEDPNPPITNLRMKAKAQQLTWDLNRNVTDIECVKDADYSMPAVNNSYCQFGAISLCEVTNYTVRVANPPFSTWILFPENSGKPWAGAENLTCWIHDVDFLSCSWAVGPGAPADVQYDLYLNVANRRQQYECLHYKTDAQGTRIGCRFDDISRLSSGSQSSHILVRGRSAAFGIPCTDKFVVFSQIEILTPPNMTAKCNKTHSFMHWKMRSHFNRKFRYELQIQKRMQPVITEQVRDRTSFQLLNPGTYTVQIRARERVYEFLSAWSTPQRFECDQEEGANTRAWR
Assay: Biacore, Fab-His on CD123 (Example 3; the sheet names no assay)
attribute-measured: koff (s⁻¹)

>>> result_number("13760 7G3_H0L0_Fab_His (Fab, V domains shown, Fab of the murine 7G3 variable regions; also called XENP13760) VH: EVQLQQSGPELVKPGASVKMSCKASGYTFTDYYMKWVKQSHGKSLEWIGDIIPSNGATFYNQKFKGKATLTVDRSSSTAYMHLNSLTSEDSAVYYCTRSHLLRASWFAYWGQGTLVTVSA VL: DFVMTQSPSSLTVTAGEKVTMSCKSSQSLLNSGNQKNYLTWYLQKPGQPPKLLIYWASTRESGVPDRFTGSGSGTDFTLTISSVQAEDLAVYYCQNDYSYPYTFGGGTKLEIKR")
0.000108
>>> result_number("13963 7G3_H1.109_L1_Fab_His (Fab, V domains shown, also called XENP13963) VH: QVQLQQSGAEVKKPGASVKVSCKASGYTFTDYYMKWVKQSHGKSLEWMGDIIPSNGATFYNQKFKGKATLTVDRSTSTAYMELSSLRSEDTAVYYCARSHLLRASWFAYWGQGTLVTVSS VL: DFVMTQSPDSLAVSLGERATINCKSSQSLLNSGNQKNYLTWYQQKPGQPPKLLIYWASTRESGVPDRFTGSGSGTDFTLTISSLQAEDVAVYYCQNDYSYPYTFGGGTKLEIKR")
"5.53e-05"
>>> result_number("13965 7G3_H1.107_L1.57_Fab_His (Fab, V domains shown, also called XENP13965) VH: QVQLQQSGAEVKKPGASVKVSCKASGYTFTDYYMKWVRQAPGQSLEWMGDIIPSNGATFYNQKFKGKATLTVDRSTSTAYMELSSLRSEDTAVYYCARSHLLRASWFAYWGQGTLVTVSS VL: DFVMTQSPDSLAVSLGERATINCKSSQSLLNTGNQKNYLTWYQQKPGQPPKLLIYWASTRESGVPDRFTGSGSGTDFTLTISSLQAEDVAVYYCQNDYSYPYTFGGGTKLEIKR")
"3.82e-05"
>>> result_number("13967 7G3_H1.109_L1.57_Fab_His (Fab, V domains shown, also called XENP13967) VH: QVQLQQSGAEVKKPGASVKVSCKASGYTFTDYYMKWVKQSHGKSLEWMGDIIPSNGATFYNQKFKGKATLTVDRSTSTAYMELSSLRSEDTAVYYCARSHLLRASWFAYWGQGTLVTVSS VL: DFVMTQSPDSLAVSLGERATINCKSSQSLLNTGNQKNYLTWYQQKPGQPPKLLIYWASTRESGVPDRFTGSGSGTDFTLTISSLQAEDVAVYYCQNDYSYPYTFGGGTKLEIKR")
"6.25e-05"
>>> result_number("13961 7G3_H1.107_L1_Fab_His (Fab, V domains shown, also called XENP13961) VH: QVQLQQSGAEVKKPGASVKVSCKASGYTFTDYYMKWVRQAPGQSLEWMGDIIPSNGATFYNQKFKGKATLTVDRSTSTAYMELSSLRSEDTAVYYCARSHLLRASWFAYWGQGTLVTVSS VL: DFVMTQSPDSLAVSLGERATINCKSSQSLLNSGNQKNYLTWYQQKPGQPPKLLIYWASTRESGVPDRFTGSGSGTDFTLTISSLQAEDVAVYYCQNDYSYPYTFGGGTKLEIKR")
"8.84e-05"
